experiment: Elimination half life in Homo sapiens (human); type: ADME, organism-based; conditions: in vivo, read-out: beta t1/2 (converted)

>  <COMPOUND>
CC(C)[C@H]1CC[C@H](C(=O)N[C@H](Cc2ccccc2)C(=O)O)CC1 [NATEGLINIDE]

>  <half-life / h>
1.4

$$$$

* * *

assay: Dissociation constant, pKa of the compound; type: physicochemical
EXPERIMENTAL ENDPOINT: pKa

>  <COMPOUND>
CC(C)[C@H]1CC[C@H](C(=O)N[C@H](Cc2ccccc2)C(=O)O)CC1 [NATEGLINIDE]

>  <EXPERIMENTAL ENDPOINT>
pKa

>  <RECORDED MEASUREMENT>
3.1

$$$$

* * *

test: Apparent permeability across basal to apical side of Sprague-Dawley Rattus norvegicus (rat) everted duodenum sac at 500 ug/ml by HPLC method; assay type: ADME
Recorded Papp B→A at 500 ug/ml for the following molecules
EXPERIMENTAL ENDPOINT: Papp B→A at 500 ug/ml (×10⁻⁶ cm/s)

>  <MOLECULE>
CC(C)[C@H]1CC[C@H](C(=O)N[C@H](Cc2ccccc2)C(=O)O)CC1 [NATEGLINIDE]

>  <UNITS LABEL>
×10⁻⁶ cm/s

>  <RECORDED MEASUREMENT>
250

$$$$
>  <MOLECULE>
CC(C)[C@H]1CC[C@H](C(=O)N[C@@H](Cc2ccccc2)C(=O)O)CC1 [(S)-NATEGLINIDE]

>  <UNITS LABEL>
×10⁻⁶ cm/s

>  <RECORDED MEASUREMENT>
210

$$$$

* * *

test: Apparent permeability across basal to apical side of Sprague-Dawley Rattus norvegicus (rat) everted jejunum sac at 1 mg/ml by HPLC method; assay type: ADME, tissue-based; settings: Sprague-Dawley

>  <MOLECULE>
CC(C)[C@H]1CC[C@H](C(=O)N[C@H](Cc2ccccc2)C(=O)O)CC1 (racemic; form 1) [NATEGLINIDE]

>  <Papp B→A at 1 mg/ml [×10⁻⁶ cm/s]>
340

$$$$
